All figures here come from patent US11981658B2.

# tested-on: EGFR L858R/C797S (Homo sapiens, UniProt P00533, C797S/L858R)
# Sequence (P00533 25-1210 C797S/L858R): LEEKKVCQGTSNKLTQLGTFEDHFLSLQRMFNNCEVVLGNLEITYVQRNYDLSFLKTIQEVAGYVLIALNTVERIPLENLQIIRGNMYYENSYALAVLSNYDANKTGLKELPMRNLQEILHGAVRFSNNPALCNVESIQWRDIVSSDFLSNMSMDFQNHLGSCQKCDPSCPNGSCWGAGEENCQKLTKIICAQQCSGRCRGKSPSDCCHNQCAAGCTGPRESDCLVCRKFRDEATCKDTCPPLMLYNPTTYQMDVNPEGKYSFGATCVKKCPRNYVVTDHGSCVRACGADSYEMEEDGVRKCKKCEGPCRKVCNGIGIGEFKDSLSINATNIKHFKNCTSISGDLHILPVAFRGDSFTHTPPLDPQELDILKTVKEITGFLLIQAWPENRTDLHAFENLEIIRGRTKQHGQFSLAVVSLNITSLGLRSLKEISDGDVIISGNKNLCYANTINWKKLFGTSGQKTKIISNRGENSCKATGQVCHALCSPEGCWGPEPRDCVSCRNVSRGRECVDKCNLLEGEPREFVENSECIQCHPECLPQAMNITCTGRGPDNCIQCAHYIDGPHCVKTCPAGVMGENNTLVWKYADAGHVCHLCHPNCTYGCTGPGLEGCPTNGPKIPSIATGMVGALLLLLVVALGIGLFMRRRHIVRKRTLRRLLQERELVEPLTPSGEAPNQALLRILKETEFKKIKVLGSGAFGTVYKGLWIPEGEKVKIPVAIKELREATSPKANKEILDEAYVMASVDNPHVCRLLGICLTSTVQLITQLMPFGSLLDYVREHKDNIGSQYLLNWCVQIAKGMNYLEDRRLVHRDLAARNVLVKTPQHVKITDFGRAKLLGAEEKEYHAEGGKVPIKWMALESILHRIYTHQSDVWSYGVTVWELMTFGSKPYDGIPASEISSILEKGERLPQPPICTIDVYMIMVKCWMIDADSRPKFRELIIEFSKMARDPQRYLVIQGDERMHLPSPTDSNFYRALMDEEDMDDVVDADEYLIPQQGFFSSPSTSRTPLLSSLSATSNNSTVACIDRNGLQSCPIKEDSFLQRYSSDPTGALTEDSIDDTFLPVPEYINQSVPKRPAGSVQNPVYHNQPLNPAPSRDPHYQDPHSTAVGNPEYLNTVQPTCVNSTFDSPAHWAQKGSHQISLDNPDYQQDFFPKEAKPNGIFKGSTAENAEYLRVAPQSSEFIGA
# experimental-protocol: Biochemical EGFR kinase inhibition assay (Lance Ultra TR-FRET), double mutant L858R/C797S
# measurement-context: Km ATP; read-out: IC50 L858R/C797S (nM), Km ATP
endpoint-name: IC50 (nM)

1. CC1(O)CCC(CNc2cc(Nc3ccnc(-c4cnn(S(=O)(=O)C5CC5)c4)n3)ncc2C#CC2CCCO2)CC1 (stereo not drawn) [Example 377] ... 52.2

a: CN(C)CC1(C)CCN(c2cc(Nc3ccnc(-c4cnn(S(=O)(=O)C5CC5)c4)n3)ncc2C#CC2(C)CC2)CC1 [Example 406]
b: O=S(=O)(C1CC1)n1cc(-c2nccc(Nc3cc(N[C@H]4CC[C@@H](CO)CC4)c(C#Cc4cnn(C(F)(F)F)c4)cn3)n2)cn1 [Example 336]
Challenge: When their IC50 values are compared, which is larger, a or b ? Refer to your chosen item by its label in the answer.
Response given: b
(b: 50.1 nM, a: 2.7 nM)

* * *

# tested-on: EGFR Del19/C797S (Homo sapiens, UniProt P00533, C797S/DEL746-750)
# Sequence (P00533 with tags, fused parts or gaps DEL746-750/C797S): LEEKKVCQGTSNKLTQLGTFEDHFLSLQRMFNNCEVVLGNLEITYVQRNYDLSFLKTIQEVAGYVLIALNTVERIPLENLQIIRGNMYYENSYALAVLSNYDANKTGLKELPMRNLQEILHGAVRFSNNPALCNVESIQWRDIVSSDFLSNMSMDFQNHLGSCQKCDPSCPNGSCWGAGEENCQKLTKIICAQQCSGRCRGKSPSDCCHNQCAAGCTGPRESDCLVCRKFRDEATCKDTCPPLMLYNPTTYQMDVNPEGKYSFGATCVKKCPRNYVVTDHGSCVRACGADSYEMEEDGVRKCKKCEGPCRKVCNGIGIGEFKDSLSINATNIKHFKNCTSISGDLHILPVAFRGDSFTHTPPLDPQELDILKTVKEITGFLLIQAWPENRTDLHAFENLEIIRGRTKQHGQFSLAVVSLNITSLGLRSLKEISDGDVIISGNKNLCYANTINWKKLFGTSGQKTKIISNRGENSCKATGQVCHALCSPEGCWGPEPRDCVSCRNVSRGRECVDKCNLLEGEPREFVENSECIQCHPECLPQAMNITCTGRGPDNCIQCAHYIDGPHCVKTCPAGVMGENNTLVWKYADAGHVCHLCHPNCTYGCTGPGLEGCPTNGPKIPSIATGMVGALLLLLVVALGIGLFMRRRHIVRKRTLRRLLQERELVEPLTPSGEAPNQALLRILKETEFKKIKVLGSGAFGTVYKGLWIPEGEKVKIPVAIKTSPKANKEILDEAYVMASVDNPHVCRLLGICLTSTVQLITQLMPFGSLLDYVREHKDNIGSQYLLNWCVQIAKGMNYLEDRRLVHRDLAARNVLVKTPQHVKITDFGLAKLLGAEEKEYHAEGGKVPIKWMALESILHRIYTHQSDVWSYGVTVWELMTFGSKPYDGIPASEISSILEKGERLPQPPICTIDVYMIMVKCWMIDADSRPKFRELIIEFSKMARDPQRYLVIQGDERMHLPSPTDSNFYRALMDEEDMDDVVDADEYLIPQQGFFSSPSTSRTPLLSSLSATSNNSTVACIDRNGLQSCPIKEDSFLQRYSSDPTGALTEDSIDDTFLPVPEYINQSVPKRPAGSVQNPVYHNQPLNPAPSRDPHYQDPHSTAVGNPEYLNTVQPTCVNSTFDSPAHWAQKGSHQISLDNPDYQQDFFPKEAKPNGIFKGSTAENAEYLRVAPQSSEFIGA
# experimental-protocol: Biochemical EGFR kinase inhibition assay (Lance Ultra TR-FRET), double mutant del19/C797S
# measurement-context: Km ATP; read-out: IC50 Del19/C797S (nM) Km ATP
endpoint-name: IC50 (nM)

a: Cn1ccc(C#Cc2cnc(Nc3ccnc(-c4cnn(S(=O)(=O)C5CC5)c4)n3)cc2N2CCC(NCCF)CC2)n1
b: CC(C)Nc1cc(Nc2ccnc(-c3cnn(S(=O)(=O)C4CC4)c3)n2)ncc1C#Cc1cnn(CC(F)F)c1
Challenge: When their IC50 values are compared, which is larger, a or b ? Refer to your chosen item by its label in the answer.
Response given: b

I: Cn1cc(C#Cc2cnc(Nc3ccnc(-c4cnn(S(=O)(=O)C5CC5)c4)n3)cc2-c2cnn(C3CC3)c2)cn1
II: CC(C)Oc1cc(Nc2ccnc(-c3cnn(S(=O)(=O)C4CC4)c3)n2)ncc1C#Cc1cnn(C)c1
Challenge: Of I and II , which carries the smaller reported IC50 figure? Refer to your chosen item by its label in the answer.
Response given: II

P: Cn1cc(-c2cc(Nc3ccnc(-c4cnn(S(=O)(=O)C5CC5)c4)n3)ncc2C#Cc2cnn(CCF)c2)cn1
Q: CCC(C)Nc1cc(Nc2ccnc(-c3cnn(S(=O)(=O)C4CC4)c3)n2)ncc1C#Cc1cnn(CCF)c1 (stereo not shown)
Challenge: Of P and Q , which carries the smaller reported IC50 figure? Refer to your chosen item by its label in the answer.
Response given: Q

a: CN(C)CCCn1cc(C#Cc2cnc(Nc3ccnc(-c4cnn(S(=O)(=O)C5CC5)c4)n3)cc2N2CCCC(CO)C2)cn1 (stereo not shown)
b: CC(C)Nc1cc(Nc2ccnc(-c3cnn(S(=O)(=O)C4CC4)c3)n2)ncc1C#Cc1cnn(C)c1
Challenge: Of a and b , which carries the smaller reported IC50 figure? Refer to your chosen item by its label in the answer.
Response given: a

* * *

# tested-on: EGFR L858R/C797S (Homo sapiens, UniProt P00533, C797S/L858R)
# experimental-protocol: Biochemical EGFR kinase inhibition assay (Lance Ultra TR-FRET), double mutant L858R/C797S
# measurement-context: IC50 L858R/C797S (nM), 100 μM ATP
endpoint-name: IC50 (nM)

1. Cn1cc(C#Cc2cnc(Nc3ccnc(-c4cnn(S(=O)(=O)C5CC5)c4)n3)cc2N2CC[C@@H](O)C2)cn1 ... 52.3
2. CC1(CO)CCN(c2cc(Nc3ccnc(-c4cnn(CC(F)F)c4)n3)ncc2C#Cc2cnn(C(F)(F)F)c2)CC1 ... 130
3. CC(=O)N1CCC(n2cc(C#Cc3cnc(Nc4ccnc(-c5cnn(S(=O)(=O)C6CC6)c5)n4)cc3N3CCC(C)(CO)CC3)cn2)CC1 ... 2.7
4. CS(=O)(=O)N1CCC(C#Cc2cnc(Nc3ccnc(-c4cnn(S(=O)(=O)C5CC5)c4)n3)cc2NCC2CCC(CO)CC2)C1 (stereo not shown) ... 1570
5. CN(C)CCC1CCN(c2cc(Nc3ccnc(-c4cnn(S(=O)(=O)C5CC5)c4)n3)ncc2C#Cc2cnn(CC(F)F)c2)CC1 ... 3.4
6. CN(C)C[C@H]1CC[C@@H](Nc2cc(Nc3ccnc(-c4cnn(S(=O)(=O)C5CC5)c4)n3)ncc2C#Cc2cnn(C)c2)CC1 ... 12.2
7. O=C(N1CCC(C#Cc2cnc(Nc3ccnc(-c4cnn(S(=O)(=O)C5CC5)c4)n3)cc2NCC2CCC(CO)CC2)C1)C(F)(F)F (stereo not shown) ... 979
8. CC1(CO)CCN(c2cc(Nc3ccnc(-c4cnn(S(=O)(=O)C5CC5)c4)n3)ncc2C#CC2COC2)CC1 ... 9.5
9. CC(=O)N1CCC(n2cc(C#Cc3cnc(Nc4ccnc(-c5cnn(S(=O)(=O)C6CC6)c5)n4)cc3N3CCC(F)(CO)CC3)cn2)CC1 ... 4.7
10. Cn1ccc(C#Cc2cnc(Nc3ccnc(-c4cnn(S(=O)(=O)C5CC5)c4)n3)cc2N2CCC(C)(CO)CC2)n1 ... 85.6

I: CN(C)CC1(C)CCN(c2cc(Nc3ccnc(-c4cnn(S(=O)(=O)C5CC5)c4)n3)ncc2C#Cc2cnn(CC(F)F)c2)CC1
II: C[C@]1(O)CC[C@H](CNc2cc(Nc3ccnc(-c4cnn(S(=O)(=O)C5CC5)c4)n3)ncc2C#Cc2cnn(CCF)c2)CC1
Challenge: When their IC50 values are compared, which is larger, I or II ? Refer to your chosen item by its label in the answer.
Response given: II
(II: 1170 nM, I: 11.5 nM)

* * *

# tested-on: EGFR L858R/T790M/C797S (Homo sapiens, UniProt P00533, C797S/L858R/T790M)
# Sequence (P00533 25-1210 T790M/C797S/L858R): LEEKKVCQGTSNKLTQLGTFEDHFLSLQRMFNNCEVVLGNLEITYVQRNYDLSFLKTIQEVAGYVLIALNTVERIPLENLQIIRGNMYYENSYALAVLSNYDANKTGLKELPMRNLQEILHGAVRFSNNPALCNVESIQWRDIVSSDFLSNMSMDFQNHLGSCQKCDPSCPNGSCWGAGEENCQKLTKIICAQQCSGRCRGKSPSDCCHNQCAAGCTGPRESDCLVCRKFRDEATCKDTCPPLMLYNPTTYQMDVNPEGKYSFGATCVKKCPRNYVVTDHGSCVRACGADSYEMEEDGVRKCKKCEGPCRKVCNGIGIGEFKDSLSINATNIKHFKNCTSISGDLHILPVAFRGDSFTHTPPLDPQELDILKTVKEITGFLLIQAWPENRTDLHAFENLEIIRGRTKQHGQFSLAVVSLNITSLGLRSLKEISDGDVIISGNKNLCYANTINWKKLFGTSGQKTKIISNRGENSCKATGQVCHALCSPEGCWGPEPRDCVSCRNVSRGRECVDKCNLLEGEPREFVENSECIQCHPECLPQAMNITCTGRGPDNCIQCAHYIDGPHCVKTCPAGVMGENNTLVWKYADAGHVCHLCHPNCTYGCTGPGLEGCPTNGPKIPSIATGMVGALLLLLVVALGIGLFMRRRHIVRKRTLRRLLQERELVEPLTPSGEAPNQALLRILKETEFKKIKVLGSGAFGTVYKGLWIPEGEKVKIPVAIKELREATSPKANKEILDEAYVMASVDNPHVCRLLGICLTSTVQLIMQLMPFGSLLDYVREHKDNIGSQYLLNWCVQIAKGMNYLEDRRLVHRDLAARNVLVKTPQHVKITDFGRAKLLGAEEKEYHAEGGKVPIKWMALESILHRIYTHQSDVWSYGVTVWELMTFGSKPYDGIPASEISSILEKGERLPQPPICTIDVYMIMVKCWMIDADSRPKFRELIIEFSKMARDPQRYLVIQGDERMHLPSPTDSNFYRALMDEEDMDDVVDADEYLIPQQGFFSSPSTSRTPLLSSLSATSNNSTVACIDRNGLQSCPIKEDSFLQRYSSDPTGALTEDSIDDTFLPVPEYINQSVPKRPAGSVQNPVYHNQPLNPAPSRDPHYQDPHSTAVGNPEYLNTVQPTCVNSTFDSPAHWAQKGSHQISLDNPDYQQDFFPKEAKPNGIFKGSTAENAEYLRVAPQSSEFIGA
# experimental-protocol: Biochemical EGFR kinase inhibition assay (Lance Ultra TR-FRET), triple mutant L858R/T790M/C797S
# measurement-context: IC50 L858R/T790M/C797S (nM), 100 μM ATP
endpoint-name: IC50 (nM)

A: CCc1cnc(C#Cc2cnc(Nc3ccnc(-c4cnn(S(=O)(=O)C5CC5)c4)n3)cc2N[C@@H]2CCC[C@H](O)C2)s1 [Example 168]
B: CC1(CO)CCN(c2cc(Nc3ccnc(-c4cnn(S(=O)(=O)C5CC5)c4)n3)ncc2C#CCCN2CCOCC2)CC1 [Example 285]
C: Cn1cc(C#Cc2cnc(Nc3ccnc(-c4cnn(S(=O)(=O)C5CC5)c4)n3)cc2N[C@H]2CC[C@@H](NCCF)CC2)cn1 [Example 80]
Challenge: Number of molecules to sort: 3. Sort criterion: IC50, ascending. Answer by listing the labels in the requested order.
Response given: B, C, A
(B: 0.6 nM, C: 1.9 nM, A: 71.2 nM)

* * *

# tested-on: EGFR L858R/T790M/C797S (Homo sapiens, UniProt P00533, C797S/L858R/T790M)
# experimental-protocol: Biochemical EGFR kinase inhibition assay (Lance Ultra TR-FRET), triple mutant L858R/T790M/C797S
# measurement-context: IC50 L858R/T790M/C797S (nM), 100 μM ATP
endpoint-name: IC50 (nM)

1: O=S(=O)(C1CC1)n1cc(-c2nccc(Nc3cc(N[C@H]4CCC[C@H](O)C4)c(C#Cc4ccsc4)cn3)n2)cn1
2: CN1CCN(Cc2ccc(C#Cc3cnc(Nc4ccnc(-c5cnn(S(=O)(=O)C6CC6)c5)n4)cc3N3CCC4(CCO4)CC3)cc2)CC1
3: CN1CCC(C#Cc2cnc(Nc3ccnc(-c4cnn(S(=O)(=O)C5CC5)c4)n3)cc2N2CCC(C)(CO)CC2)CC1
4: Cn1cc(C#Cc2cnc(Nc3ccnc(-c4cnn(S(=O)(=O)C5CC5)c4)n3)cc2N2CCC(NS(C)(=O)=O)CC2)cn1
Challenge: Number of molecules to sort: 4. Sort criterion: IC50, ascending. Answer by listing the labels in the requested order.
Response given: 3, 2, 4, 1
(3: 0.1 nM, 2: 0.8 nM, 4: 2.4 nM, 1: 12.3 nM)

* * *

# tested-on: EGFR wildtype (WT) (Homo sapiens)
# Sequence (P00533 25-1210): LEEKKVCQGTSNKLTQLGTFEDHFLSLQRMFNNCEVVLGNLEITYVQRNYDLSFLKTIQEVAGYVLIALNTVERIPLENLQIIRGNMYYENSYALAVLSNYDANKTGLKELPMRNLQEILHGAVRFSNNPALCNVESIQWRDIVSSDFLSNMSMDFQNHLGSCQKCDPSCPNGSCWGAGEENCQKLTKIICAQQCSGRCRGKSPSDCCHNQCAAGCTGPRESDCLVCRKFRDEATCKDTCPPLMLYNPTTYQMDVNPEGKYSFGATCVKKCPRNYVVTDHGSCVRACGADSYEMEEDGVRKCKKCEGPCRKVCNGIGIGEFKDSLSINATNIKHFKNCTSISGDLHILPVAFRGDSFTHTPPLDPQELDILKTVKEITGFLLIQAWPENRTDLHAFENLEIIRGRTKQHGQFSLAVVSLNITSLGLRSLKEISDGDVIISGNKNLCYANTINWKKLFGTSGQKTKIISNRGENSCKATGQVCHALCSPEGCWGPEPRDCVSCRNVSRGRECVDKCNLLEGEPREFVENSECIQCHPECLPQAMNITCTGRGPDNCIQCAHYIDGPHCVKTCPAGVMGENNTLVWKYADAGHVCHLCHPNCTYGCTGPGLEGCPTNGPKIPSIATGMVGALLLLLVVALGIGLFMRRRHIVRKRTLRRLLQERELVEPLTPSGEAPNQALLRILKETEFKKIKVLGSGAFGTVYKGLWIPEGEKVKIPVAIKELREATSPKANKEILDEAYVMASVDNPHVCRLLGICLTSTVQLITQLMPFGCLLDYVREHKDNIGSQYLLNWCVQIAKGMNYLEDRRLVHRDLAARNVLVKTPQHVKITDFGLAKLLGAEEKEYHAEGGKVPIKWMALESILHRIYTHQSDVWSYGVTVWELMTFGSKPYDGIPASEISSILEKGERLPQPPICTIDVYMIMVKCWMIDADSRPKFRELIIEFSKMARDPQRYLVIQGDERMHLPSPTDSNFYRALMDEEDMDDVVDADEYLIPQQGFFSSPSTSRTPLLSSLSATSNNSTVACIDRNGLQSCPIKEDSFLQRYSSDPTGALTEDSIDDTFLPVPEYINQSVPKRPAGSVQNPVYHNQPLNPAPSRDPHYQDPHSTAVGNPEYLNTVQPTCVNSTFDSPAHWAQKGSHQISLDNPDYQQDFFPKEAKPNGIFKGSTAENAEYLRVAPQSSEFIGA
# experimental-protocol: Biochemical EGFR kinase inhibition assay (Lance Ultra TR-FRET), wildtype
# measurement-context: ATP at Km; read-out: IC50 WT (nM), Km ATP
endpoint-name: IC50 (nM)

1) CN(C)CCCn1cc(C#Cc2cnc(Nc3ccnc(-c4cnn(S(=O)(=O)C5CC5)c4)n3)cc2N2CCC3(CC2)CC(C)(O)C3)cn1 ... 0.6
2) CN(C)C[C@H]1CC[C@@H](Nc2cc(Nc3ccnc(-c4cnn(S(=O)(=O)C5CC5)c4)n3)ncc2C#Cc2cnn(C)c2)CC1 ... 9.6

I: C=CC#Cc1cnc(Nc2ccnc(-c3cnn(S(=O)(=O)C4CC4)c3)n2)cc1N1CCC(C)(CO)CC1
II: O=S(=O)(C1CC1)n1cc(-c2nccc(Nc3cc(NC[C@H]4CC[C@H](O)CC4)c(C#Cc4cnn(C(F)F)c4)cn3)n2)cn1
III: CC1(CO)CCN(c2cc(Nc3ccnc(-c4cnn(CC(F)F)c4)n3)ncc2C#Cc2cnn(C(F)(F)F)c2)CC1
Challenge: Ascending by IC50, please: list the molecules accordingly. Answer by listing the labels in the requested order.
Response given: I, II, III

P: CC1(C#Cc2cnc(Nc3ccnc(-c4cnn(S(=O)(=O)C5CC5)c4)n3)cc2N2CCC(C)(CO)CC2)CCOCC1
Q: CC(C)(O)C1CCN(c2cc(Nc3ccnc(-c4cnn(S(=O)(=O)C5CC5)c4)n3)ncc2C#Cc2cnn(C(F)(F)F)c2)CC1
Challenge: When their IC50 values are compared, which is larger, P or Q ? Refer to your chosen item by its label in the answer.
Response given: Q
(Q: 700 nM, P: 146 nM)

A: CN1CCN(Cc2ccc(C#Cc3cnc(Nc4ccnc(-c5cnn(S(=O)(=O)C6CC6)c5)n4)cc3N3CCC(C)(CO)CC3)cn2)CC1
B: CN1CCC(C#Cc2cnc(Nc3ccnc(-c4cnn(S(=O)(=O)C5CC5)c4)n3)cc2NC2CCC(O)CC2)C1 (stereo not drawn)
Challenge: When their IC50 values are compared, which is larger, A or B ? Refer to your chosen item by its label in the answer.
Response given: B
(B: 6.1 nM, A: 0.6 nM)
